Tested on: DMPK
Test: DMPK knockdown by transfected antisense oligonucleotides in DM1 C15 myotubes at 0.5 nM and 50 nM
Assay type: cell-based
Conditions: 0.5 nM oligonucleotide, 72 hours

| substance | tested.on | Percent DMPK Reduction [%] |
| --- | --- | --- |
| 431 (GGAGCAGGGAAAGCGCCUCC; chemistry not given here) [compound 431] | DMPK | 21.46 |
| 412 (AGGUACAGGUAGUUCUCAUC; chemistry not given here) [compound 412] | DMPK | 18.68 |
| 407 (CCAAACUUGCTCAGCAGUGU; chemistry not given here) [compound 407] | DMPK | 23.64 |
| 395 (AAGGGCGUCUGCCCAUAGAA; chemistry not given here) [compound 395] | DMPK | 13.15 |
| 430 (GUCUAUGGCCAUGACAAUCU; chemistry not given here) [compound 430] | DMPK | -11.00 |
| 377 (UUUCCCGAGUAAGCAGGCAG; chemistry not given here) [compound 377] | DMPK | 20.69 |
| 467 (AGCUCCCGCAGCGUCACCUC; chemistry not given here) [compound 467] | DMPK | 13.72 |
| 405 (CUUUGGGCAGAUGGAGGGCC; chemistry not given here) [compound 405] | DMPK | 28.06 |
| 465 (GCAUCCAAAACGUGGAUUGG; chemistry not given here) [compound 465] | DMPK | 2.54 |
| 455 (UCCAGUUCCAUGGGUGUGGG; chemistry not given here) [compound 455] | DMPK | 15.66 |
| 475 (GCCUCAGCCUGGCCGAAAGA; chemistry not given here) [compound 475] | DMPK | -4.82 |
| 388 (UGGAACACGGACGGCCCGGC; chemistry not given here) [compound 388] | DMPK | -1.90 |
| 380 (UGCCCAUAGAACAUUUCAUA; chemistry not given here) [compound 380] | DMPK | 7.67 |
| 382 (AUGUCCCUGUGCACGUAGCC; chemistry not given here) [compound 382] | DMPK | 16.78 |
| 470 (AUUUCAUAGGCGAAUACACC; chemistry not given here) [compound 470] | DMPK | -4.54 |
| 429 (GCGGUCCAGCAGGAUGUUGU; chemistry not given here) [compound 429] | DMPK | 38.84 |
| 439 (CACCAACACGUCCCUCUCCU; chemistry not given here) [compound 439] | DMPK | 37.51 |
| 390 (UCCUGCAACUGCCGGACGUG; chemistry not given here) [compound 390] | DMPK | 16.06 |
| 427 (UUGUUCAUGAUCUUCAUGGC; chemistry not given here) [compound 427] | DMPK | 14.13 |
| 471 (UCGGCCAGGCGGAUGUGGCC; chemistry not given here) [compound 471] | DMPK | 26.53 |
| 445 (GAGGGCCUUUUAUUCGCGAG; chemistry not given here) [compound 445] | DMPK | 8.23 |
| 436 (CCACUUCAGCUGUUUCAUCC; chemistry not given here) [compound 436] | DMPK | 22.40 |
| 399 (GGCACGAGACAGAACAACGG; chemistry not given here) [compound 399] | DMPK | 16.10 |
| 422 (GUAGUUCUCAUCCUGGAAGG; chemistry not given here) [compound 422] | DMPK | 7.43 |
| 415 (AGGGCCUUUUAUUCGCGAGG; chemistry not given here) [compound 415] | DMPK | 13.63 |
| 443 (CCAUCCGCUCCUGCAACUGC; chemistry not given here) [compound 443] | DMPK | 19.53 |
| 381 (UAGUUCUCAUCCUGGAAGGC; chemistry not given here) [compound 381] | DMPK | 16.83 |
| 477 (CAGCGGCAGAGAGAGGUGCT; chemistry not given here) [compound 477] | DMPK | 4.49 |
| 461 (CGGAGACCAUCCCAGUCGAG; chemistry not given here) [compound 461] | DMPK | 14.08 |
| 396 (ACAGACAAUAAAUACCGAGG; chemistry not given here) [compound 396] | DMPK | -3.95 |
| 383 (CGGGCCCGGAUCACAGGACU; chemistry not given here) [compound 383] | DMPK | 17.45 |
| 406 (ACAGGUAGUUCUCAUCCUGG; chemistry not given here) [compound 406] | DMPK | 20.51 |
| 457 (GGGCCUUUUAUUCGCGAGGG; chemistry not given here) [compound 457] | DMPK | 5.11 |
